experiment: Pharmacokinetics and biodistribution after i.v. injection; assay type: in vivo, wild-type C57BL/6 mice; conditions: C57BL/6, mouse, blood, iv, i.v. tail vein, two-phase exponential decay model; read-out: Blood slow half-life
parameter_measured: half-life (min)
Give bare numbers, in min.

Record summary for O=C(Cc1c[nH]c2ccc(O)cc12)NC(Cc1c[nH]c2ccc(O)cc12)C(=O)NCCOCCOCC[18F] (stereo not shown) : reported half-life = 4.66

----------
assay: Pharmacokinetics and biodistribution after i.v. injection; format: in vivo, wild-type C57BL/6 mice; conditions: C57BL/6, mouse, blood, iv, i.v. tail vein, two-phase exponential decay model; read-out: Blood short (fast) half-life
parameter_measured: half-life (s)
Give bare numbers, in s.

Record summary for O=C(Cc1c[nH]c2ccc(O)cc12)NC(Cc1c[nH]c2ccc(O)cc12)C(=O)NCCOCCOCC[18F] (stereo not shown) [Compound 9] : reported half-life = 15.6
